Entry source: PubChem BioAssay (NCI)

# Test system: NCI-H522 lung
# method.notes: NCI tumour cell line growth inhibition, 48 h
readout.name: TGI

molecule | assay.target | readout.name | value.measured
COC(=O)C1=C(C)N(NC(N)=O)C2(N)N(NC(N)=O)C(C)=C(C(=O)OC)C12C#N (centres undefined) | NCI-H522 lung | TGI | > 100 µM
O=C(O[C@H](/C=C/c1ccccc1)P1(=O)N(Cc2ccccc2)[C@H]2CCCC[C@@H]2N1Cc1ccccc1)c1ccccc1 | NCI-H522 lung | TGI | > 100 µM
COC(=O)C1=C(C)NC(CF)=C(C(=O)OC)C1c1cccc2c(=O)c3ccccc3oc12 (centres undefined) | NCI-H522 lung | TGI | > 100 µM
CC12CCC(=O)N1[C@@H](c1ccccc1)[C@@H](c1ccccc1)O2 (some centres undefined) | NCI-H522 lung | TGI | > 100 µM
c1ccc(CN2C3C4N(Cc5ccccc5)C2C2N(Cc5ccccc5)C(C(N2Cc2ccccc2)N4Cc2ccccc2)N3Cc2ccccc2)cc1 | NCI-H522 lung | TGI | > 100 µM
Nc1nc(N)c2c(Cl)c(CNc3ccc(Cl)c(Cl)c3)ccc2n1 | NCI-H522 lung | TGI | 9.56 µM
COc1ccc(/C(=N/Nc2nc3ccccc3n2Cc2ccccc2)C(=O)O)cc1 | NCI-H522 lung | TGI | 68.8 µM
CN(C)C/C=C/C(=O)Nc1ccc(C(=O)Nc2cccc(Nc3ncc(Cl)c(-c4c[nH]c5ccccc45)n3)c2)cc1 | NCI-H522 lung | TGI | 0.094 µM
O=C(CC(=O)N1N=C(n2ccc3ccccc32)CC1c1ccccc1)Nc1ccccc1Cl (centres undefined) | NCI-H522 lung | TGI | > 100 µM
